quantityKind: melting point

In [3]: df
Out[3]:
                                        mol  endpointresult
0  COc1cc(/C(=C\S(=O)(=O)c2ccc(C)cc2)c2ccc(Cl)cc2)cc(OC)c1OC     96 to 98 °C
1  COc1cc(/C(=C\S(=O)(=O)c2ccc(C)cc2)c2ccccc2)cc(OC)c1OC   139 to 141 °C
2  COc1cc(/C(=C\S(=O)(=O)c2ccc(C)cc2)c2ccc(C#N)cc2)cc(OC)c1OC   165 to 167 °C
3  COc1cc(/C(=C\S(=O)(=O)c2ccc(C)cc2)c2ccc(F)c(Cl)c2)cc(OC)c1OC   123 to 125 °C

----------
System: IMR-32 (neuroblast cancer) cells
Experiment: MTT antiproliferative assay, IMR-32
Type: cell-based
Conditions: 48 h, mean ± SEM of three experiments, read-out: IC50 values against selected human cancer cell lines, IMR32
pIC50: −log10 of the molar value.
quantityKind: pIC50

                                        mol  endpointresult
0  COc1cc(/C(=C\S(=O)(=O)c2ccc(C)cc2)c2cccc(C(F)(F)F)c2F)cc(OC)c1OC            5.13

----------
quantityKind: melting point

>>> print(df.to_string())
                                   compound  endpointresult
0  COc1cc(/C(=C\S(=O)(=O)c2ccc(C)cc2)c2ccc(-c3ccccc3)cc2)cc(OC)c1OC [Compound 4U]   132 to 134 °C
1  COc1ccc(/C(=C/S(=O)(=O)c2ccc(C)cc2)c2cc(OC)c(OC)c(OC)c2)cc1OC [Compound 4D]   173 to 175 °C
2  COc1cc(/C(=C\S(=O)(=O)c2ccc(C)cc2)c2ccc(Cl)c(Cl)c2)cc(OC)c1OC [Compound 4N]   151 to 153 °C
3  COc1ccc(/C(=C/S(=O)(=O)c2ccc(C)cc2)c2cc(OC)c(OC)c(OC)c2)c(OC)c1 [Compound 4C]   107 to 109 °C
4  COc1ccc(/C(=C/S(=O)(=O)c2ccc(C)cc2)c2cc(OC)c(OC)c(OC)c2)cc1 [Compound 4B]   124 to 126 °C

----------
quantityKind: melting point

In [3]: df
Out[3]:
                                        mol  endpointresult
0  COc1cc(OC)cc(/C(=C/S(=O)(=O)c2ccc(C)cc2)c2cc(OC)c(OC)c(OC)c2)c1   163 to 165 °C
1  COc1cc(C#CS(=O)(=O)c2ccc(C)cc2)cc(OC)c1OC   119 to 121 °C
2  CCOc1ccc(F)c(/C(=C/S(=O)(=O)c2ccc(C)cc2)c2cc(OC)c(OC)c(OC)c2)c1   125 to 127 °C
3  COc1cc(/C(=C\S(=O)(=O)c2ccc(C)cc2)c2ccc(F)c(F)c2)cc(OC)c1OC   140 to 142 °C
